assay: qHTS of pediatric cancer cell lines to identify multiple opportunities for drug repurposing: Primary screen for BT-12 cells (AID 1347101); details: BT-12 viability, CellTiter-Glo luminescence, 48 h; series mostly up to 57.3 µM; further: nearly all actives have a fitted effect of over 25% in size
Inconclusive results are not listed. Activity calls are given as the source filed them. The call rests on the fitted dose curve; in most records, active means well fitted cell-killing curve with a large enough effect; inconclusive means small, poorly fitted or top-dose-only effect; inactive means flat fitted curve, though single readings scatter.
Return exactly one item of active, inactive

Short answer needed: outcome of this test for COc1cc2nc(-c3cc(F)ccc3O)nc(N[C@@H]3CNC[C@@H]3C(C)(C)O)c2cc1OC ? active

Ok, now CC(=O)OCC(=O)[C@@]12OC(C)(C)O[C@H]1C[C@H]1[C@@H]3C[C@H](F)C4=CC(=O)C=C[C@]4(C)[C@@]3(F)[C@@H](O)C[C@@]12C inactive

Ok, now Cc1ccc(C(=O)N(CCCN)[C@@H](c2oc3cc(Cl)ccc3c(=O)c2Cc2ccccc2)C(C)C)cc1 active

Ok, now CC(C)N(CCCNC(=O)Nc1ccc(C(C)(C)C)cc1)C[C@H]1O[C@@H](n2cc(Br)c3c(N)ncnc32)[C@H](O)[C@H]1O active

Ok, now CC(C)=CCCC(C)=CCCC(C)=CCCC(C)=CCCC(C)=CCCC(C)=CCCC(C)=CCCC(C)=CCCC(C)=CCO inactive

Ok, now CON(C)C(=O)N1N=C(c2cc(F)ccc2F)S[C@]1(CCCN)c1ccccc1 active

Ok, now C#CCN(C)CC1=Cc2ccccc2Oc2ccccc21 inactive

Ok, now C[C@@]1(C(=O)Nc2ccc(F)nc2)CCCN1c1nc(Nc2cc(C3CC3)[nH]n2)c2cccn2n1 inactive

Ok, now Cc1cccc(-c2[nH]c(C(C)(C)C)nc2-c2ccc3c(c2)OCO3)n1 active

Ok, now Cc1c(C(=O)Nc2ccc(N3C[C@@H](C)O[C@@H](C)C3)nc2)cccc1-c1ccc(OC(F)(F)F)cc1 active

Ok, now O[C@@H](COc1cccc2ncccc12)CN1CCN(C2c3ccccc3[C@@H]3[C@H](c4ccccc42)C3(F)F)CC1 (stereo partly specified) active

Ok, now CC[C@H](C=C[C@@H](C)[C@H]1CC[C@H]2[C@@H]3CC=C4C[C@@H](O)CC[C@]4(C)[C@@H]3CC[C@]12C)C(C)C inactive

Ok, now O=C(c1ccc(F)c(F)c1Nc1ccc(I)cc1F)N1CC(O)([C@H]2CCCCN2)C1 active

Ok, now COc1cc(C=CC(=O)O)ccc1O inactive

Ok, now CCCCCOC(=O)Nc1nc(=O)n([C@@H]2O[C@H](C)[C@@H](O)C2O)cc1F (stereo partly specified) inactive

Ok, now CCN1C[C@H](C)n2c(c(O)c3c(=O)n(Cc4ccc(F)c(Cl)c4)nc(C(=O)NC)c32)C1=O inactive

Ok, now C[C@@H]1[C@H](C)CC[C@]2(C(=O)O)CC[C@]3(C)C(=CC[C@@H]4[C@@]5(C)CC[C@H](O)C(C)(C)[C@H]5CC[C@]43C)[C@@H]12 inactive

Ok, now CCC(=C(c1ccc(O)cc1)c1ccc(OCCNC)cc1)c1ccccc1 active

Ok, now Fc1ccc(CNc2ncnc3ccc(F)cc23)cc1 active

Ok, now Cc1ccc(NC(=O)c2ccc(CN3CCN(C)CC3)cc2)cc1Nc1nc(-c2cccnc2)cs1 active

Ok, now O=c1[nH]nc(OCCCc2ccc(Cl)cc2)c(NCc2cccnc2)c1Br active

Data provenance is PubChem BioAssay (NCATS).
